assay method text: Antiproliferative activity against human L132 cells assessed as cell growth inhibition incubated for 72 hrs by MTT assay
Format: cell-based
Quick list: GI50 at 72 h per entry.

Solved cases below.
{"columns": ["compound", "assay value"],
 "data": [
  ["CN1CCN(c2ccc(C(=O)Nc3cccc(C#Cc4cccc5[nH]nc(N)c45)c3)cc2C(F)(F)F)CC1", "> 10 µM"],
  ["Nc1n[nH]c2cccc(C#Cc3cccc(C(=O)Nc4cc(C(F)(F)F)cc(C(F)(F)F)c4)c3)c12", "> 100 µM"],
  ["Cc1ccc(C(=O)Nc2cccc(C#Cc3cccc4[nH]nc(N)c34)c2)cc1C(F)(F)F", "> 100 µM"],
  ["Cc1cn(-c2cc(NC(=O)c3cccc(C#Cc4cccc5[nH]nc(N)c45)c3)cc(C(F)(F)F)c2)cn1", "12.9 µM"],
  ["Nc1n[nH]c2cccc(C#Cc3cccc(C(=O)Nc4ccc(Cl)c(C(F)(F)F)c4)c3)c12", "> 100 µM"]
]}

# input What value of GI50 at 72 h has been reported for the following compound? `Cc1ccc(NC(=O)c2ccc(CN3CCN(C)CC3)cc2)cc1Nc1nccc(-c2cccnc2)n1`
# output > 10 µM

# input What about this compound? `CN1CCN(Cc2cc(NC(=O)c3cccc(C#Cc4cccc5[nH]nc(N)c45)c3)cc(C(F)(F)F)c2)CC1`
# output > 100 µM

# input Can you handle `Nc1n[nH]c2cccc(C#Cc3cccc(NC(=O)c4ccc(N5CCOCC5)c(C(F)(F)F)c4)c3)c12` next?
# output 9.27 µM
